Test system: healthy subjects
method-notes: Phase 1 crossover study: clinically assessed injection site reactions
assay-setup: 60 mg SQ elamipretide with or without the intervention, across all timepoints, all participants, n = 80
property-label: Clinically assessed Pruritis, Number of Reported Reactions

molecule | experimental-value
CN(C)CCOC(c1ccccc1)c1ccccc1 [Diphenhydramine] | 8
CN(C)CCC=C1c2ccccc2COc2ccccc21 [Doxepin] | 10
C=CC[C@@H]1/C=C(\C)C[C@H](C)C[C@H](OC)[C@H]2O[C@@](O)(C(=O)C(=O)N3CCCC[C@H]3C(=O)O[C@H](/C(C)=C/[C@@H]3CC[C@@H](O)[C@H](OC)C3)[C@H](C)[C@@H](O)CC1=O)[C@H](C)C[C@@H]2OC | 12
Cc1cc(O)cc(C)c1C[C@H](NC(=O)[C@H](N)CCCNC(=N)N)C(=O)N[C@@H](CCCCN)C(=O)N[C@@H](Cc1ccccc1)C(N)=O (stereo in doubt) [Elamipretide, H-D-Arg-2′,6′Dmt-Lys-Phe-NH2] | 14
C[C@@H]1C[C@H]2[C@@H]3CCC4=CC(=O)C=C[C@]4(C)[C@@]3(Cl)[C@@H](O)C[C@]2(C)[C@@]1(OC(=O)c1ccco1)C(=O)CCl [Mometasone furoate] | 2

* * *

Tested on: healthy subjects
method-notes: Phase 1 crossover study: self-assessed injection site reactions
Type: in vivo, human
assay-setup: 60 mg SQ elamipretide with or without the intervention, across all timepoints, all participants, n = 80
Reported Self-assessed Redness, Number of Reported Reactions values for the following compounds.
property-label: Self-assessed Redness, Number of Reported Reactions

compound | experimental-value
C[C@@H]1C[C@H]2[C@@H]3CCC4=CC(=O)C=C[C@]4(C)[C@@]3(Cl)[C@@H](O)C[C@]2(C)[C@@]1(OC(=O)c1ccco1)C(=O)CCl [Mometasone furoate] | 33
CN(C)CCC=C1c2ccccc2COc2ccccc21 [Doxepin] | 28
C=CC[C@@H]1/C=C(\C)C[C@H](C)C[C@H](OC)[C@H]2O[C@@](O)(C(=O)C(=O)N3CCCC[C@H]3C(=O)O[C@H](/C(C)=C/[C@@H]3CC[C@@H](O)[C@H](OC)C3)[C@H](C)[C@@H](O)CC1=O)[C@H](C)C[C@@H]2OC | 20
CN(C)CCOC(c1ccccc1)c1ccccc1 [Diphenhydramine] | 20
Cc1cc(O)cc(C)c1C[C@H](NC(=O)[C@H](N)CCCNC(=N)N)C(=O)N[C@@H](CCCCN)C(=O)N[C@@H](Cc1ccccc1)C(N)=O (stereo in doubt) [Elamipretide, H-D-Arg-2′,6′Dmt-Lys-Phe-NH2] | 24

* * *

method-notes: Phase 1 crossover study: pharmacokinetics of elamipretide and metabolites M1, M2
assay-setup: human, in vivo, 60 mg

molecule | Tmax [min]
Cc1cc(O)cc(C)c1C[C@H](NC(=O)[C@H](N)CCCNC(=N)N)C(=O)N[C@@H](CCCCN)C(=O)N[C@@H](Cc1ccccc1)C(N)=O (stereo in doubt) [Elamipretide, H-D-Arg-2′,6′Dmt-Lys-Phe-NH2] | 30

Origin of measurements: patent US20240299486A1
